- experimental system: cytosolic androgen receptor (AR) (Rattus norvegicus, UniProt P15207)
- Construct: The supernatant (cytosol) containing AR protein was removed and stored; from tissue; host or cells: ventral prostate cytosol of castrated male Sprague-Dawley rats
- test protocol: biochemical
- Type: binding, Sprague-Dawley rats
measured attribute: RBA (%): (IC50 of DHT)/(IC50 of a ligand)*100%
Answer format: numeric, % implied, no suffix.

[
  {
    "compound": "CC(=O)Nc1ccc(SC[C@@](C)(O)C(=O)Nc2ccc(C#N)c(C(F)(F)F)c2)cc1 [C-8 (S)]",
    "experimental system": "cytosolic androgen receptor (AR) (Rattus norvegicus, UniProt P15207)",
    "quantity unit": "%",
    "value measured": 0.19
  }
]

Ask | // fetch cytosolic androgen receptor (AR) (Rattus norvegicus, UniProt P15207) RBA (%): (IC50 of DHT)/(IC50 of a ligand)*100% for CC(=O)N(C(C)=O)c1ccc(SC[C@](C)(O)C(=O)Nc2ccc(C#N)c(C(F)(F)F)c2)cc1 [C-9]
Reply | 10.2

Ask | Record CC(=O)Nc1ccc(SC[C@](C)(O)C(=O)Nc2ccc(C#N)c(C(F)(F)F)c2)cc1 [C-8 (R)] : what is its RBA (%): (IC50 of DHT)/(IC50 of a ligand)*100% with cytosolic androgen receptor (AR) (Rattus norvegicus, UniProt P15207)?
Reply | 26.9

Ask | Lab note: need RBA (%): (IC50 of DHT)/(IC50 of a ligand)*100% with cytosolic androgen receptor (AR) (Rattus norvegicus, UniProt P15207) for entry CCC(=O)Nc1ccc(SC[C@](C)(O)C(=O)Nc2ccc(C#N)c(C(F)(F)F)c2)cc1 [C-10] , please look it up.
Reply | 7.08

Ask | Param readout = RBA (%): (IC50 of DHT)/(IC50 of a ligand)*100%; param system = cytosolic androgen receptor (AR) (Rattus norvegicus, UniProt P15207); param query = CC(=O)Nc1ccc(S(=O)(=O)C[C@](C)(O)C(=O)Nc2ccc(C#N)c(C(F)(F)F)c2)cc1 [C-7] ; response: value
Reply | 15.9

###

- System: AR (plasmid pCMVhAR) in CV-1 cells
- test protocol: Transcriptional activation (AR-mediated luciferase reporter, cotransfected CV-1 cells)
- Assay type: cell-based
- settings: CV-1, 48 h, read-out: Agonist Activity (% of DHT): maximal percentage of transcriptional activation observed for each ligand
measured attribute: Emax (%)
Field format: number, assumed %, no unit text.

[
  {
    "compound": "C[C@](O)(CI)C(=O)Nc1ccc([N+](=O)[O-])c(C(F)(F)F)c1",
    "value measured": 88.6
  },
  {
    "compound": "C[C@](O)(CBr)C(=O)Nc1ccc(C#N)c(C(F)(F)F)c1",
    "value measured": 18.5
  }
]

Ask | Return reported Emax; argument: C[C@]12CCC(=O)C[C@@H]1CC[C@@H]1[C@@H]2CC[C@]2(C)[C@@H](O)CC[C@@H]12 [DHT, dihydrotestosterone, reference compound]
Reply | 100

Ask | Any idea what its Emax is? The compound is C[C@](O)(CI)C(=O)Nc1ccc(C#N)c(C(F)(F)F)c1
Reply | 20.5

Ask | Which Emax value belongs to C[C@](O)(CS(=O)(=O)c1ccc(F)cc1)C(=O)Nc1ccc(C#N)c(C(F)(F)F)c1 [R-Bicalutamide, reference compound] ?
Reply | 8.28

###

- experimental system: cytosolic androgen receptor (AR) (Rattus norvegicus, UniProt P15207)
measured attribute: pKd
Scale: negative log10 of molar concentration, which is what pKd denotes.

Ask | Data request, read-out pKd, for C[C@@H]1CC2=CC(=O)CC[C@@H]2[C@H]2CC[C@@]3(C)[C@@H](CC[C@]3(C)O)[C@@H]21 [3H-MIB, (17α-methyl-^3 H)-Mibolerone]
Reply | 9.72

###

- experimental system: cytosolic androgen receptor (AR) (Rattus norvegicus)
- Construct: The supernatant (cytosol) containing AR protein was removed and stored; from tissue; host or cells: ventral prostate cytosol of castrated male Sprague-Dawley rats
- Sequence (P15207 1-902): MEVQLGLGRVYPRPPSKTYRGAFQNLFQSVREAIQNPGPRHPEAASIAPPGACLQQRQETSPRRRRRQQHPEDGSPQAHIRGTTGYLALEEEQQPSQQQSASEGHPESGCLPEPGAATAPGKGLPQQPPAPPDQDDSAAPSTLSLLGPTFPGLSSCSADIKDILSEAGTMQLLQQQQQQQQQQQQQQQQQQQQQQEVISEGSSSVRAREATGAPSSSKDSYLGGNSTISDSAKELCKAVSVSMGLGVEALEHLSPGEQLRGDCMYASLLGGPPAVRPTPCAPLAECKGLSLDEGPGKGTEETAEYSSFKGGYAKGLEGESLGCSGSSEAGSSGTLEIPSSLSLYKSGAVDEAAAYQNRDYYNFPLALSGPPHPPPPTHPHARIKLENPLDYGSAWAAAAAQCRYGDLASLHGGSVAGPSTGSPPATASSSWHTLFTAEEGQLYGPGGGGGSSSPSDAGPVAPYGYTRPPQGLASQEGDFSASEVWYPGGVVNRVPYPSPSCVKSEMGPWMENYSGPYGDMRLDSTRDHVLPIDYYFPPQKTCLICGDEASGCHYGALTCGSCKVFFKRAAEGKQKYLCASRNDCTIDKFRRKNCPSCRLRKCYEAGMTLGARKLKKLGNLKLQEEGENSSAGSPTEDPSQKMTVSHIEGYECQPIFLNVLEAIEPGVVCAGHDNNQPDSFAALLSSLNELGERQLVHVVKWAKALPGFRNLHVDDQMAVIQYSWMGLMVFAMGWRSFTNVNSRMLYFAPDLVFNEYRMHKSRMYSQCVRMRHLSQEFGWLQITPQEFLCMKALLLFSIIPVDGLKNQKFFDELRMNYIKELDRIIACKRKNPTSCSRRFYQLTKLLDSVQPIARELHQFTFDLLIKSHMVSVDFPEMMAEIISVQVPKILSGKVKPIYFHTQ
- test protocol: biochemical
- Format: binding, Sprague-Dawley rats
- settings: 3H-MIB 1 nM, 4° C., 18 hours; R-isomers of C-1 to C-5; read-out: Ki (Table 1)
Reported pKi values for the following compounds.
// pKi: -log10(molar conc.)

[
  {
    "compound": "C[C@](O)(CI)C(=O)Nc1ccc([N+](=O)[O-])c(C(F)(F)F)c1 [C-5]",
    "pKi": 9.07
  },
  {
    "compound": "C[C@](O)(CI)C(=O)Nc1ccc(C#N)c(C(F)(F)F)c1 [C-4]",
    "pKi": 8.55
  }
]

Next item in the queue.
Ask | Which pKi reading was recorded for the compound C[C@](O)(CBr)C(=O)Nc1ccc(C#N)c(C(F)(F)F)c1 [C-2] ?
Reply | 8.10

###

The molecules listed here are annotated with their Ki.
- experimental system: cytosolic androgen receptor (AR) (Rattus norvegicus)
- Construct: The supernatant (cytosol) containing AR protein was removed and stored; from tissue; host or cells: ventral prostate cytosol of castrated male Sprague-Dawley rats
- Sequence (P15207 1-902): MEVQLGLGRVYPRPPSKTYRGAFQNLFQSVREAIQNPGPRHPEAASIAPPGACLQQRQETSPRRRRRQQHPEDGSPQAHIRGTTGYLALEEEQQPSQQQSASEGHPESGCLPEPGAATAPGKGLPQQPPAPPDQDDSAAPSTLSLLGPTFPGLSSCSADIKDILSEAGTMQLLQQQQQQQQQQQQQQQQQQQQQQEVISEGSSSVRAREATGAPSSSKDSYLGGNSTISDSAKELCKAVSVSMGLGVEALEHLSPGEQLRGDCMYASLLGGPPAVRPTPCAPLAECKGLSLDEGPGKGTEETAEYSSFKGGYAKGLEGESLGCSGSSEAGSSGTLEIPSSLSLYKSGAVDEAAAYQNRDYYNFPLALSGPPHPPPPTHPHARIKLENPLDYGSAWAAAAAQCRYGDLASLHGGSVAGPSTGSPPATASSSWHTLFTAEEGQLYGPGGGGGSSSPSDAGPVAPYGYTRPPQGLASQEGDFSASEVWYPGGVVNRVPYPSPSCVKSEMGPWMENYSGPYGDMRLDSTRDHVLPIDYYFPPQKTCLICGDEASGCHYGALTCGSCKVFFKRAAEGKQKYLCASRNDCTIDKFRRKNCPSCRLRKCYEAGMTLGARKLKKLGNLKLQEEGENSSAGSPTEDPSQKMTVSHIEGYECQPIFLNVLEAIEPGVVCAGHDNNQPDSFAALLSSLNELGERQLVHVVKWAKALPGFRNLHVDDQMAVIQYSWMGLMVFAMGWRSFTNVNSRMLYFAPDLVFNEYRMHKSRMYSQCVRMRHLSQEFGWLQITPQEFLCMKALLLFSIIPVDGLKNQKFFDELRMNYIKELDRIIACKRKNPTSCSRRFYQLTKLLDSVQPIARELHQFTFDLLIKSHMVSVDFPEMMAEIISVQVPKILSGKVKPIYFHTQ
- test protocol: biochemical
- Format: binding, Sprague-Dawley rats
Hi! Could you send only the number? It should be in nM, unit omitted.

[
  {
    "molecule": "CCC(=O)Nc1ccc(SC[C@](C)(O)C(=O)Nc2ccc(C#N)c(C(F)(F)F)c2)cc1",
    "Ki [nM]": 3.81
  },
  {
    "molecule": "CC(=O)N(C(C)=O)c1ccc(SC[C@](C)(O)C(=O)Nc2ccc(C#N)c(C(F)(F)F)c2)cc1",
    "Ki [nM]": 2.64
  },
  {
    "molecule": "CC(=O)Nc1ccc(SC[C@](C)(O)C(=O)Nc2ccc(C#N)c(C(F)(F)F)c2)cc1 [C-8 (R)]",
    "Ki [nM]": 1
  }
]

Ask | Recorded Ki for CC(=O)Nc1ccc(SC[C@@](C)(O)C(=O)Nc2ccc(C#N)c(C(F)(F)F)c2)cc1 [C-8 (S)] , please?
Reply | 141

Ask | For the molecule CC(=O)Nc1ccc(S(=O)(=O)C[C@](C)(O)C(=O)Nc2ccc(C#N)c(C(F)(F)F)c2)cc1 , what Ki is on record?
Reply | 1.7

Source listed as patent US6160011A.
